The reported numbers originate from BigSolDB 2.1.

- CONDITION SUMMARY: in ethylene glycol, 308.15 K
EXPERIMENTAL ENDPOINT: solubility (mole fraction)

I am curious: what solubility (mole fraction) value has been reported for `CO/N=C1\C[C@]2(C[C@@H]3C[C@@H](C/C=C(\C)C[C@@H](C)/C=C/C=C4\CO[C@@H]5[C@H](O)C(C)=C[C@@H](C(=O)O3)[C@]45O)O2)O[C@H](/C(C)=C/C(C)C)[C@H]1C` ?
0.0137

---

- CONDITION SUMMARY: in methanol, 293.15 K
EXPERIMENTAL ENDPOINT: solubility (mole fraction)
Reply with the value as a number alone.

What solubility (mole fraction) value was documented for this molecule, `CO/N=C1\C[C@]2(C[C@@H]3C[C@@H](C/C=C(\C)C[C@@H](C)/C=C/C=C4\CO[C@@H]5[C@H](O)C(C)=C[C@@H](C(=O)O3)[C@]45O)O2)O[C@H](/C(C)=C/C(C)C)[C@H]1C` ?
0.0454
